The reported numbers originate from PubChem BioAssay (NCI).

Tested on: NCI-H460 lung
Protocol Description: NCI-60 one-dose screen, 48 h (100 = growth as untreated, 0 = no growth, -100 = all killed)
Assay Setup: 10 µM
About 83,000 compounds went through this panel and 20% of them were active in at least one assay; those are over-represented in the sample as a whole.
Measured Parameter: growth (%)
Return type: number; implicit unit %.

QUERY: What value of growth has been recorded for this entry: O=C(/C=C/c1cccc(Oc2ccc(Cl)cc2)c1)c1ccccc1
RESULT: 97.3

QUERY: What value of growth has been recorded for this entry: COc1ccc(C(=O)/C=C/c2ccc(OCc3cccc(C(F)(F)F)c3)c(OC)c2)cc1OC
RESULT: 78.9

QUERY: What value of growth has been recorded for this entry: CC(=O)/C=C/c1ccc(OCc2ccc(C(C)(C)C)cc2)cc1
RESULT: 84.4

QUERY: What value of growth has been recorded for this entry: CC(=O)/C=C/c1ccc(N(CCO)Cc2ccc(C(C)(C)C)cc2)cc1
RESULT: 74.4

###

Tested on: A549/ATCC NSCLC
Protocol Description: NCI-60 one-dose screen, 48 h (100 = growth as untreated, 0 = no growth, -100 = all killed)
Assay Setup: 10 µM unless noted
About 83,000 compounds went through this panel and 20% of them were active in at least one assay; those are over-represented in the sample as a whole.
Measured Parameter: growth (%)
Return type: number; implicit unit %.

QUERY: What value of growth has been recorded for this entry: O=C(Nc1ccc(F)cc1)c1cc2cc(Nc3nc(-c4ccccc4)nc4ccccc34)ccc2oc1=O
RESULT: 92.5

QUERY: What value of growth has been recorded for this entry: Cc1cc2nc(C(Cl)Cl)nc(-c3ccc(Cl)cc3)n2n1
RESULT: 0.301

QUERY: What value of growth has been recorded for this entry: N=c1c2c(-c3ccccc3)c(-c3ccccc3)oc2ncn1NC(=O)c1cccnc1
RESULT: 103

QUERY: What value of growth has been recorded for this entry: COC(=O)c1nc(-c2ccc(C)cc2)oc1S(=O)(=O)c1ccc(Cl)cc1
RESULT: 100

QUERY: What value of growth has been recorded for this entry: COc1cc(Nc2nc3ccccc3cc2C(=O)Nc2ccc(F)c(F)c2)cc(OC)c1OC
RESULT: 22.7

###

Test system: SW-620 colon
Protocol Description: NCI-60 one-dose screen, 48 h (100 = growth as untreated, 0 = no growth, -100 = all killed)
Assay Setup: 10 µM unless noted
About 83,000 compounds went through this panel and 20% of them were active in at least one assay; those are over-represented in the sample as a whole.
Class 1.0: growth at least 90%. Class 0.0: growth below 90%.

QUERY: Has COc1cc(-c2[nH]ncc2Nc2ccc(Cl)cc2)cc(OC)c1OC a recorded growth greater than or equal to 90%?
RESULT: 0.0

QUERY: Has COc1ccc(/C=N/C2=C(C#N)C(c3ccccc3)c3c(ccc4ccccc34)O2)cc1 (centres undefined) a recorded growth greater than or equal to 90%?
RESULT: 0.0

QUERY: Has COc1cc(/C=C(/c2ccccc2)[N+](=O)[O-])c(OC)c2c1OCO2 a recorded growth greater than or equal to 90%?
RESULT: 0.0

QUERY: Has CC1=C2[C@@H](CC1)[C@]1(C)O[C@@](C(C)C)(C[C@H]1OC(=O)CO)[C@H]2OC(=O)C1CC1c1ccccc1 (some centres undefined) a recorded growth greater than or equal to 90%?
RESULT: 0.0

QUERY: Has CN(C)C1CCN(C(=O)c2ccc(NC(=O)Nc3ccc(-c4nc(N5CCOCC5)c5cccn5n4)cc3)cc2)CC1 a recorded growth greater than or equal to 90%?
RESULT: 0.0

QUERY: Has C=C(C)[C@@H]1CC[C@]2(C(=O)N3CCN(C)CC3)CC[C@]3(C)[C@H](CC[C@@H]4[C@@]5(C)CC(CCCNC(C)=O)(CCCNC(C)=O)[C@H](OC(C)=O)C(C)(C)[C@@H]5CC[C@]43C)[C@@H]12 a recorded growth greater than or equal to 90%?
RESULT: 1.0

QUERY: Has COc1cc(-c2nc3occn3c2-c2ccnc(NCCCNS(=O)(=O)c3ccc(O)cc3)n2)ccc1F a recorded growth greater than or equal to 90%?
RESULT: 1.0
